Test system: Fibroblast
Assay: Multiplex assay against human fibroblast
Assay type: toxicity, cell-based
Conditions: 24 h, 10 µM, compound concentration 10 uM, replicate 2
Population Mitotic Cells (%) by entry:
Number only, in %; omit the unit.

Field: example entries. Status: answers known.
COc1ccc(NS(=O)(=O)c2sc3ccc(Cl)cc3c2C)cc1N1CCNCC1.Cl :: 32
COc1cc2c(NC3CCN(C(C)C)CC3)nc(N3CCC(F)(F)CC3)nc2cc1OCCCN1CCCC1 :: 9
CCCn1c(=O)c2[nH]c(C34CC5CC(CC3C5)C4)nc2n(CCC)c1=O [ROLOFYLLINE] :: 43
CCOc1cc(N2CCC(O)CC2)ccc1Nc1ncc2c(n1)N(C1CCCC1)CCC(=O)N2C :: 40
Cc1cn(-c2cc(NC(=O)c3ccc4c(c3)CN(c3cncnc3)C[C@@H]4C)cc(C(F)(F)F)c2)cn1 :: 42

## Input Could you share what Population Mitotic Cells (%) was measured for CN(C)C/C=C/C(=O)Nc1cc2c(Nc3ccc(F)c(Cl)c3)ncnc2cc1O[C@H]1CCOC1.O=C(O)/C=C\C(=O)O.O=C(O)/C=C\C(=O)O [AFATINIB DIMALEATE] , tested on Fibroblast?
## Output 33

## Input For the record O=C(O)c1ccc2cc(-c3ccc(O)c(C45CC6CC(CC(C6)C4)C5)c3)ccc2c1 [O-DEMETHYLATED ADAPALENE] , what value of Population Mitotic Cells (%) is listed for Fibroblast?
## Output 100

## Input Which Population Mitotic Cells (%) is reported with Fibroblast for this entry: "CC(C)N1CCC(C)(C)c2cc(C#Cc3ccc(C(=O)O)cc3)ccc21" ?
## Output 0

## Input What Population Mitotic Cells (%) appears in the records for this compound with Fibroblast? CN(C)CCOc1ccc(-c2nc(-c3ccncc3)c(-c3ccc4c(c3)CC/C4=N\O)[nH]2)cc1 [SB590885]
## Output 0

## Input Entry "COc1cc2c(Nc3ccc(NC(=O)c4ccccc4)cc3)ncnc2cc1OCCCN1CCOCC1" , system Fibroblast: what Population Mitotic Cells (%) was measured?
## Output 33

## Input Find the measured Population Mitotic Cells (%): item CCc1cc2c(cc1CC)CC(NC[C@H](O)c1ccc(O)c3[nH]c(=O)ccc13)C2 [INDACATEROL] , target or system Fibroblast.
## Output 10

## Input Query Population Mitotic Cells (%) on Fibroblast for CCOc1cc2ncc(C#N)c(Nc3ccc(OCc4cccc(F)c4)c(Cl)c3)c2cc1NC(=O)/C=C/CN(C)C [HKI-357]
## Output 36

## Input Recall the recorded Population Mitotic Cells (%) for "Nc1nc2c(c(N3CCNCC3)n1)CCC1=C2[C@@H]2CCCC[C@@H]2O1" with Fibroblast and state it.
## Output 66

## Input Fibroblast / Population Mitotic Cells (%) / CNC(=O)c1cc(Oc2ccc(NC(=O)Nc3cc(C(C)(C)C)nn3-c3ccc4ncccc4c3)c(F)c2)ccn1 [REBASTINIB] : value?
## Output 30
